- targetUnderTest: HLA-A*0201 (HLA-A2.1) (Homo sapiens, UniProt P04439, D140Y/D185E/D98H/E176V/E277Q/G131W/G231S/I119V/I121R/I166T/I218V/L300P/L318F/N151K/N90K/P208A/P217A/Q86G/Q94H/R138H/R169H/T345S)
- experimentalProtocol: biochemical
- Type: binding
pIC50: −log10 of the molar value. No end group written: not given here.
measure: pIC50

IQNIIQNDV [Peptide 9013.0032] : 4.79
YVIGTQQAV [Peptide 9013.0024] : 6.80
RILQHLLFA [Peptide 1525.24] : 6.80
KLTSLCVTL [Peptide 1537.03] : 7.04
SLYTHLQCL [Peptide 1578.20] : 6.65
TQVLFIAKV [Peptide 9013.0105] : 5.98
GMIDDVTAI [Peptide 1578.44] : 7.64
KVTIESTPFNV [Peptide 9013.0265] : 5.59
TVNNSGSYV [Peptide 9013.0064] : 4.78
RILQRLLFV [Peptide 1525.27] : 7.19
TLVLFIAKI [Peptide 9013.0106] : 4.78
VLEGKEVLL [Peptide 9013.0019] : 5.54
VLAEAMSRV [Peptide 1516.10] : 7.40
ALYWFRTAM [Peptide 86.0195] : 5.83
FLSHVKIPV [Peptide 1578.55] : 7.39
IIYPNASLV [Peptide 9013.0029] : 6.64
VLAEAMAAA [Peptide 1516.12] : 7.77
TLYAHIQCL [Peptide 1578.26] : 6.57
MTSNPAIPV [Peptide 1539.03] : 5.83
TLFNVTRNDV [Peptide 9013.0230] : 5.83
MTANPPIPV [Peptide 1539.01] : 8.64
NLLYGPDDPTI [Peptide 9013.0310] : 5.01
TLVTTITVYA [Peptide 9013.0193] : 6.11
IQGAVISFV [Peptide 1578.13] : 7.35
GLMIGVLVGVA [Peptide 9013.0345] : 5.66
NLNLSCHAV [Peptide 9013.0054] : 6.20
GLTVGIMIGVL [Peptide 9013.0343] : 5.30
RILQQLLFV [Peptide 1525.09] : 7.55
TLQDVSLEV [Peptide 1578.45] : 6.15
GVLVGVALV [Peptide 9013.0110] : 6.02
NLAEGKEVL [Peptide 9013.0016] : 5.42
ALYSWFVNGT [Peptide 9013.0173] : 6.18
YLYYRPGVNL [Peptide 9013.0209] : 7.27
VVWDSIYYI [Peptide 1578.53] : 7.89
ELQNTTYLWWV [Peptide 9013.0325] : 5.52
FLDAFKKFL [Peptide 1578.31] : 6.80
KLMSNLLSI [Peptide 1578.21] : 7.80
LQGAIISFV [Peptide 1578.28] : 7.38
LLLTASLLV [Peptide 9013.0002] : 7.55
FLQSTQELFI [Peptide 9013.0179] : 7.02
FLGALKSFV [Peptide 1593.56] : 7.03
IIYPNASLLV [Peptide 9013.0144] : 6.33
RLIIGYVIGT [Peptide 9013.0140] : 5.73
SLACSWGMVV [Peptide 1578.02] : 6.09
VLFTCEPEA [Peptide 9013.0089] : 6.62
KLITVSAEL [Peptide 9013.0084] : 7.15

Recorded values, source patent US9340577B2.
